Taken from patent US10526316B2.

Tested on: Akt phosphorylated at Thr308 in PC-3 cells
MEASUREMENT_PROTOCOL: Cellular assay: phosphorylation of Akt at Thr308 in PC-3 cells (MSD ELISA)
Assay type: cell-based
DETAILS: Homo sapiens, PC-3, 1 h, read-out: IC50 pAkt_Thr308
Method: Cellular activity of PI3KP inhibitors was determined by quantifying the phosphorylation of Akt in PC-3 cells. Akt phosphorylated at Ser473 and Thr308 were measured using an enzyme-linked immunosorbent assay (ELISA; Meso Scale Discovery (MSD), Gaithersburg. Md.) and specific primary antibodies from MSD. On day 2, compound or DMSO (0.3%) was added and cells were further incubated for 60 min at 37° C. […] Data were processed. […] From these concentration-response curves, the IC50 values were calculated. […]
QUANTITY_MEASURED: pIC50
Answer as the number alone; pIC50 is minus log10 of concentration in mol/L.

Form field pIC50, entry CNCCN(C)C(=O)c1cc(C2CCCN2c2cc(F)cc(F)c2)c2nc(N3CCOCC3)cnc2c1 (stereo not shown) : 9.52
